- Tested on: THRa homodimer (NR concentration 90 nM)
- ASSAY PROCEDURE: PBM binding z-score (relative to random genomic background probes); higher = stronger binding; sequences stand for … in GC…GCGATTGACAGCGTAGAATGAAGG
Records here are stratified by PBM binding z-score; strata: I: < 0.08; II: ≥ 0.08 and < 1; III: ≥ 1

Below are worked cases with known answers.
q: The entry to classify is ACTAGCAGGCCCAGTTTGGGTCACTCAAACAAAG ; which class holds it?
a: II

q: The entry to classify is TCGAGTAGGTTACCAATGGGGGATTCAGCTTTCT ; which class holds it?
a: II

q: The entry to classify is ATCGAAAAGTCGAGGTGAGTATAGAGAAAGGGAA ; which class holds it?
a: II

More entries:
q: The entry to classify is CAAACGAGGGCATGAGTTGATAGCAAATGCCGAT ; which class holds it?
a: I

q: The entry to classify is CGAACGGGGGCATGAGTTGATAGCAAATGCCGAT ; which class holds it?
a: III

q: The entry to classify is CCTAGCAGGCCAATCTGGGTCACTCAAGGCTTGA ; which class holds it?
a: II

q: The entry to classify is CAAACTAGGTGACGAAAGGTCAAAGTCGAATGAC ; which class holds it?
a: III

q: The entry to classify is GGAGACAGGTGAAACGCAGGTAACTCAGGGTGGC ; which class holds it?
a: I

----------
- System: PPARg homodimer (NR concentration 180 nM)
- ASSAY PROCEDURE: PBM binding z-score (relative to random genomic background probes); higher = stronger binding; sequences stand for … in GC…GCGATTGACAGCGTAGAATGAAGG
Each entry gets not satisfied if its PBM binding z-score stays under 2, and satisfied if its PBM binding z-score is 2 or above.

Below are worked cases with known answers.
q: Could you please find out whether AGAATGAGGTTAAGACCAGGGAAACAGAATACAT has PBM binding z-score that meets 2 or exceeds it?
a: not satisfied

q: Could you please find out whether TTACCAAGGTGAAAAGTCGTTGATGCACGCCTTG has PBM binding z-score that meets 2 or exceeds it?
a: not satisfied

q: Could you please find out whether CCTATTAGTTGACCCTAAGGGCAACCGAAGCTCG has PBM binding z-score that meets 2 or exceeds it?
a: satisfied

q: Could you please find out whether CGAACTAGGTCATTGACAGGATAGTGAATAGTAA has PBM binding z-score that meets 2 or exceeds it?
a: not satisfied

q: Could you please find out whether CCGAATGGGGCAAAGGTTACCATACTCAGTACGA has PBM binding z-score that meets 2 or exceeds it?
a: not satisfied

More entries:
q: Could you please find out whether CCTCGGAGGACAAAAGGTCAGAGCTGTCCGCTTT has PBM binding z-score that meets 2 or exceeds it?
a: satisfied

q: Could you please find out whether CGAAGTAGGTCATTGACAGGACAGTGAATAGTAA has PBM binding z-score that meets 2 or exceeds it?
a: satisfied

q: Could you please find out whether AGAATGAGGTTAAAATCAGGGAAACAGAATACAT has PBM binding z-score that meets 2 or exceeds it?
a: not satisfied

q: Could you please find out whether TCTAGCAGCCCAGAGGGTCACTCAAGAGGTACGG has PBM binding z-score that meets 2 or exceeds it?
a: not satisfied

q: Could you please find out whether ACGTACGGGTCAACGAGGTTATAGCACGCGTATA has PBM binding z-score that meets 2 or exceeds it?
a: not satisfied

q: Could you please find out whether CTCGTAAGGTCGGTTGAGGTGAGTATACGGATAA has PBM binding z-score that meets 2 or exceeds it?
a: not satisfied

q: Could you please find out whether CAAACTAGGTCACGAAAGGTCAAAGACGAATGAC has PBM binding z-score that meets 2 or exceeds it?
a: satisfied

----------
- Test system: LXRb:RXRa (NR concentration 270 nM, RXRa partner concentration 90 nM)
- ASSAY PROCEDURE: PBM binding z-score (relative to random genomic background probes); higher = stronger binding; sequences stand for … in GC…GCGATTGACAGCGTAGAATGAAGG
OBSERVATION TYPE: PBM binding z-score
Answers are plain numbers.

Some solved entries appear below for comparison.
q: Give PBM binding z-score for the following sequence: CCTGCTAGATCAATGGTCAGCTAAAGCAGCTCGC
a: -0.945

q: Give PBM binding z-score for the following sequence: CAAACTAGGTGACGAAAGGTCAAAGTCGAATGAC
a: 5.5

q: Give PBM binding z-score for the following sequence: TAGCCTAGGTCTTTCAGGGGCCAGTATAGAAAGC
a: -0.066

q: Give PBM binding z-score for the following sequence: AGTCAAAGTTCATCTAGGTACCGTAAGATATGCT
a: 3.95

Look up PBM binding z-score for the entries below, preserving their order.
1. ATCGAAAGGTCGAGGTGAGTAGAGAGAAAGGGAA
2. AGTCAAAGTCCATCTAGGTAACGTAAGATATGCT

a:
1: 2.46; 2: -0.0801

----------
- Tested on: RARa:RXR (NR concentration 270 nM, RXRa partner concentration 90 nM)
- ASSAY PROCEDURE: PBM binding z-score (relative to random genomic background probes); higher = stronger binding; sequences stand for … in GC…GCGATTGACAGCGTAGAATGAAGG
Records here are stratified by PBM binding z-score; strata: range A = under 0.4, range B = from 0.4 up to 4, range C = 4 and over

Below are worked cases with known answers.
q: The entry to classify is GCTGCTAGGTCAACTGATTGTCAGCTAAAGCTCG ; which class holds it?
a: range B

q: The entry to classify is TCATATAGGTAAACTGGTGAAAGTCCGTAAGTTA ; which class holds it?
a: range B

q: The entry to classify is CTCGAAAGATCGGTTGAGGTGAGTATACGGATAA ; which class holds it?
a: range B

q: The entry to classify is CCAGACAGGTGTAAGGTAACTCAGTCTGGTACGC ; which class holds it?
a: range A

q: The entry to classify is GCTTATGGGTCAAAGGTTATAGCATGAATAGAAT ; which class holds it?
a: range C

Now take the following sequence into account.
q: The entry to classify is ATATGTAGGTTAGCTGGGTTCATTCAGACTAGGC ; which class holds it?
a: range B

----------
- Tested on: RARa:RXR (NR concentration 270 nM, RXRa partner concentration 90 nM)
- ASSAY PROCEDURE: PBM binding z-score (relative to random genomic background probes); higher = stronger binding; sequences stand for … in GC…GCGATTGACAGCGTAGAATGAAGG
Each entry gets Not satisfied if its PBM binding z-score stays under 0.7, and Satisfied if its PBM binding z-score is 0.7 or above.

Below are worked cases with known answers.
q: Could you please find out whether ACTTACGGGTCAACGAGGTTATAGTACGCGTATA has PBM binding z-score that meets 0.7 or exceeds it?
a: Satisfied

q: Could you please find out whether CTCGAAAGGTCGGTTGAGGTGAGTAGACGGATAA has PBM binding z-score that meets 0.7 or exceeds it?
a: Satisfied

q: Could you please find out whether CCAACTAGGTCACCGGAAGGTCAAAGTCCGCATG has PBM binding z-score that meets 0.7 or exceeds it?
a: Satisfied

More entries:
q: Could you please find out whether AGAACGAGGGCACGCTTAGTTGATAGCAGAGTAG has PBM binding z-score that meets 0.7 or exceeds it?
a: Satisfied

q: Could you please find out whether ATACCAAGGTGATCGTGAGGTCGTTCATACTAAC has PBM binding z-score that meets 0.7 or exceeds it?
a: Satisfied

q: Could you please find out whether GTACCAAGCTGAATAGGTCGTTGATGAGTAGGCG has PBM binding z-score that meets 0.7 or exceeds it?
a: Not satisfied

q: Could you please find out whether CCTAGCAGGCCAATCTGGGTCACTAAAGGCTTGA has PBM binding z-score that meets 0.7 or exceeds it?
a: Satisfied

q: Could you please find out whether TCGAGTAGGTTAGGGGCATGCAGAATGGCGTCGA has PBM binding z-score that meets 0.7 or exceeds it?
a: Not satisfied

q: Could you please find out whether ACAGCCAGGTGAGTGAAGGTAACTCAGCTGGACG has PBM binding z-score that meets 0.7 or exceeds it?
a: Not satisfied

q: Could you please find out whether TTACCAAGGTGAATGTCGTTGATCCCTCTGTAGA has PBM binding z-score that meets 0.7 or exceeds it?
a: Satisfied

q: Could you please find out whether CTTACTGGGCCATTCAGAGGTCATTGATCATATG has PBM binding z-score that meets 0.7 or exceeds it?
a: Satisfied

q: Could you please find out whether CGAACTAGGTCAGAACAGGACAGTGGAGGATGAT has PBM binding z-score that meets 0.7 or exceeds it?
a: Satisfied
